Target: Hsp90
Assay: SPR affinity measurement, biotinylated compounds immobilized on a streptavidin chip, Hsp90 analyte
Details: compound immobilized on streptavidin chip, values in parentheses have chi2 > 10
pKd: −log10 of the molar value.
Rule: yes for pKd not less than 8, no for anything less.

{"columns": ["compound", "assigned class"],
 "data": [
  ["NC(=O)C(CCCCNC(=O)C(CNC(=O)c1cccc(-c2cccnc2)c1)NC(=O)c1ccc(NC(=O)COCC(=O)N2CCCN(S(=O)(=O)c3cccc4cnccc34)CC2)cc1)NC(=O)COCCOCCNC(=O)CCCCC1SCC2NC(=O)NC21 (centres unmarked)", "yes"],
  ["COc1ccc(C=CC(=O)NCC(NC(=O)c2cccc(NS(=O)(=O)c3ccc(-c4ccccc4)cc3)c2)C(=O)NCCCCC(NC(=O)COCCOCCNC(=O)CCCCC2SCC3NC(=O)NC32)C(N)=O)cc1OC (centres unmarked) [Compound 14a]", "no"],
  ["COc1ccc(C=CC(=O)NCC(NC(=O)c2ccc(NC(=O)COCC(=O)NC(C)COc3c(C)cccc3C)cc2)C(=O)NCCCCC(NC(=O)COCCOCCNC(=O)CCCCC2SCC3NC(=O)NC32)C(N)=O)cc1OC (centres unmarked) [Compound 10a]", "yes"],
  ["NC(=O)C(CCCCNC(=O)C(CCCCNC(=O)c1ccc2[nH]nc(Br)c2c1)NS(=O)(=O)c1ccc(-c2ccccc2)cc1)NC(=O)COCCOCCNC(=O)CCCCC1SCC2NC(=O)NC21 (centres unmarked)", "yes"]
]}
